Entry source: patent US20040266623A1

- System: plantain
- PROCEDURE_TEXT: Greenhouse pot test, postemergent spray, visual control rating converted to percent control
- Format: in vivo
- CONDITION_NOTES: Test 3, 24 HAT
QUANTITY: % Control Plantain (%)
Write it as a number; the unit % goes unstated.

Which % Control Plantain is reported with plantain for this entry: Cc1nn(-c2cc(NS(C)(=O)=O)c(Cl)cc2Cl)c(=O)n1C(F)F [Sulfentrazone @ 0.02 lbs/A] ?
44.4

Form field - read-out: % Control Plantain; system: plantain; submitted item: O=C(O)c1c(Cl)ccc2cc(Cl)cnc12 [Quinclorac @ 0.18 lbs/A]
11.1

Give plantain % Control Plantain for O=C(O)c1c(Cl)ccc2cc(Cl)cnc12 [Quinclorac @ 0.75 lbs/A]
11.1

Any idea what % Control Plantain came out for Cc1nn(-c2cc(NS(C)(=O)=O)c(Cl)cc2Cl)c(=O)n1C(F)F [Sulfentrazone @ 0.03 lbs/A] on plantain?
44.4

Lab note: need % Control Plantain with plantain for entry O=C(O)c1c(Cl)ccc2cc(Cl)cnc12 [Quinclorac @ 0.375 lbs/A] , please look it up.
11.1

Recorded % Control Plantain for Cc1cc(Cl)ccc1OCC(=O)OCCCCCC(C)C [MCPA IOE @ 1.10 lbs/A] with plantain, please?
44.4
